Hi there, I'd appreciate the recorded log10 MIC for every entry that follows.
tested on: Human alphaherpesvirus 3; experiment: The minimum inhibitory concentration was measured on HEL cells against Varicella zoster virus (OKA strain); type: functional; details: Human alphaherpesvirus 3, oka
Would you kindly interpret these values as log10 of MIC expressed in µg/mL?

## Input Need log10 MIC, item "Cc1cn2c(O)c3c(nc2n1)N(COCCO)CN3"
## Output 0.66

## Input Need log10 MIC, item "OCC(CO)OCN1CNc2c1nc1nc(-c3ccc(-c4ccccc4)cc3)cn1c2O"
## Output 1.00

## Input Need log10 MIC, item "CC(C)(C)c1cn2c(O)c3c(nc2n1)N(COC(CO)CO)CN3"
## Output 0.70

## Input Need log10 MIC, item Nc1nc2c(ncn2COCCO)c(=O)[nH]1 [ACYCLOVIR]
## Output -0.74

## Input Need log10 MIC, item "OCC(CO)OCN1CNc2c1nc1nc(-c3ccccc3)cn1c2O"
## Output -0.40

## Input Need log10 MIC, item "OCCOCN1CNc2c1nc1nc(-c3ccc(Br)cc3)cn1c2O"
## Output 0.00

## Input Need log10 MIC, item "CC(C)(C)c1cn2c(O)c3c(nc2n1)N(COCCO)CN3"
## Output 0.00

## Input Need log10 MIC, item O=c1[nH]c(=O)n([C@H]2C[C@H](O)[C@@H](CO)O2)cc1/C=C/Br [BRIVUDINE]
## Output -2.30

## Input Need log10 MIC, item Cc1cn2c(O)c3c(nc2n1)N(COCCO)C(Br)N3 (centres undefined)
## Output 2.33

## Input Need log10 MIC, item "OCCOCN1CNc2c1nc1nc(-c3ccccc3)cn1c2O"
## Output 0.11

## Input Need log10 MIC, item Nc1nc2c(ncn2COC(CO)CO)c(=O)[nH]1 [GANCICLOVIR]
## Output -0.30

## Input Need log10 MIC, item "Cc1cn2c(O)c3c(nc2n1)N(COC(CO)CO)CN3"
## Output 0.00

## Input Need log10 MIC, item "OCCOCN1CNc2c1nc1nc(-c3ccc(-c4ccccc4)cc3)cn1c2O"
## Output 1.81

---

test system: Human alphaherpesvirus 3; assay: The minimum inhibitory concentration was measured on HEL cells against TK-Varicella zoster virus (YS-R strain); format: functional; settings: Human alphaherpesvirus 3, ys-r
Classification by MIC | ranges: lowest (below 20 µg/mL), middle (20 µg/mL to below 70 µg/mL), highest (70 µg/mL or more)

## Input Record "CC(C)(C)c1cn2c(O)c3c(nc2n1)N(COCCO)CN3" — which class?
## Output highest

## Input Record "Nc1nc2c(ncn2COCCO)c(=O)[nH]1" — which class?
## Output lowest

## Input Record "Nc1nc2c(ncn2COC(CO)CO)c(=O)[nH]1" — which class?
## Output lowest

## Input Record Cc1cn2c(O)c3c(nc2n1)N(COCCO)C(Br)N3 (stereo not drawn) — which class?
## Output highest

## Input Record "OCC(CO)OCN1CNc2c1nc1nc(-c3ccccc3)cn1c2O" — which class?
## Output lowest

## Input Record "CC(C)(C)c1cn2c(O)c3c(nc2n1)N(COC(CO)CO)CN3" — which class?
## Output middle

## Input Record "OCCOCN1CNc2c1nc1nc(-c3ccccc3)cn1c2O" — which class?
## Output middle

## Input Record "Cc1cn2c(O)c3c(nc2n1)N(COC(CO)CO)CN3" — which class?
## Output lowest

## Input Record "OCCOCN1CNc2c1nc1nc(-c3ccc(Br)cc3)cn1c2O" — which class?
## Output highest
